Tested on: MOLM14;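 note: after 48 h exposure read by CellTiter-Glo luminescence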
testName: cell viability relative to vehicle control; higher = less cytotoxic
appliedConditions: 10 µM; SRSF2 genotype: SRSF2 P95H/wt
Structures can show the parent of a compound that is named as a salt.
Measured cell viability accompanies every entry in the list below.
experimentalEndpoint: cell viability

- molecule: "C[N+]1(C)CCCC(OC(=O)C(O)(c2ccccc2)c2ccccc2)C1 (stereo not drawn) [mepenzolate bromide]"
  result: "104%"
- molecule: "CCC1CN2CCC3(C(=O)Nc4ccccc43)C2CC1C(=COC)C(=O)OC (stereo not drawn) [Isorhychophylline]"
  result: "92.5%"
- molecule: "C[C@]12CC[C@H]3[C@@H](CC[C@@]45O[C@@H]4C(O)=C(C#N)C[C@]35C)[C@@H]1CC[C@@H]2O [Trilostane]"
  result: "95.4%"
- molecule: "C[C@@]12N[C@@H](Cc3ccccc31)c1ccccc12 [(-)-MK 801 maleate]"
  result: "100%"
- molecule: "COC1=C[C@@H]2[C@@H]3Cc4ccc(OC)c(O)c4[C@]2(CCN3C)CC1=O [Sinomenine hydrochloride]"
  result: "98.5%"
- molecule: "CNC(C)Cc1ccccc1OC (stereo not drawn) [Methoxyphenamine Hydrochloride]"
  result: "106%"
- molecule: "c1c2c(cc3c1OCO3)-c1cc3ccc4c(c3c[n+]1CC2)OCO4 [Coptisine chloride]"
  result: "96.2%"
- molecule: "CC(=O)OC12COC1CC(O)C1(C)C(=O)C(O)C3=C(C)C(O)CC(O)(C(OC(=O)c4ccccc4)C21)C3(C)C (stereo not drawn) [10-DAB (10-Deacetylbaccatin)]"
  result: "111%"
- molecule: "O=C(O)CNC(=O)c1c(O)c2ccccc2n(Cc2ccccc2)c1=O"
  result: "99.8%"
- molecule: "COC1=CC23CCN(C)C(Cc4ccc(OC)c(O)c42)C3=CC1=O (stereo not drawn) [Sinoacutine]"
  result: "108%"
- molecule: "Cc1cccc([C@H](C)c2c[nH]cn2)c1C [Dexmedetomidine HCl (Precedex)]"
  result: "102%"
- molecule: "O=C1CCC[C@@H]2[C@H]3CCCN4CCC[C@@H](CN12)[C@@H]34 [Matrine ((+)-Matrine)]"
  result: "105%"
- molecule: "CCN1C[C@]2(COC)CC[C@H](OC)[C@]34C1[C@H](C[C@H]23)[C@@]1(O)C[C@H](OC)[C@H]2C[C@@H]4[C@@H]1[C@H]2O [Talatisamine]"
  result: "105%"
- molecule: "C/C=C(\\C)C(=O)N[C@@H](c1ccccc1)[C@@H](O)C(=O)O[C@H]1C[C@@]2(O)[C@@H](OC(=O)c3ccccc3)[C@@H]3[C@]4(OC(C)=O)CO[C@@H]4C[C@H](O)[C@@]3(C)C(=O)[C@H](OC(C)=O)C(=C1C)C2(C)C [Cephalomannine]"
  result: "9.27%"
- molecule: "C[C@](O)(COc1ccc(C#N)cc1)C(=O)Nc1ccc(C#N)c(C(F)(F)F)c1"
  result: "94%"
- molecule: "O=c1ccc2cc3ccoc3c(O)c2o1 [Xanthotoxol]"
  result: "92.8%"
- molecule: "COc1ccc(C=O)cc1 [p-Anisaldehyde]"
  result: "105%"
- molecule: "O=S(=O)(CC1CS1)c1ccc(Oc2ccccc2)cc1 (stereo not drawn)"
  result: "39.1%"
